Overview of reported viability, T/C across a group of compounds:
Test system: 171881-019-R-J1-PDC tumor spheroids, viability;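 also: spheroids exposed to compounds for 7 days; 100% = DMSO vehicle control viability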
Experiment: Anticancer human tumor 171881-019-R-J1-PDC patient-derived invasive breast carcinoma cell line growth inhibition [GQUAD]
Settings: second compound 0.1 µM; first compound 3.16 µM; active compounds read low; spheroids with HUVEC and MSC
The reply should be a number in %, with the unit left off.

[[record]]
compound = "CC1COCCN1c1cc(C2(O)CC3CCC(C2)O3)c2cnn(-c3ccn[nH]3)c2n1 (stereo not given) + CN(C)c1ccc(Nc2c3ccc(NC(=O)CCN4CCCC4)cc3nc3cc(NC(=O)CCN4CCCC4)ccc23)cc1"
reading_unit = "%"
experimental_value = 1.2

[[record]]
compound = "CC(=O)O[C@H]1C(=O)[C@@]2(C)[C@H]([C@H](OC(=O)c3ccccc3)[C@]3(O)C[C@H](OC(=O)[C@H](O)[C@@H](NC(=O)c4ccccc4)c4ccccc4)C(C)=C1C3(C)C)[C@]1(OC(C)=O)CO[C@@H]1C[C@@H]2O + CN(C)c1ccc(Nc2c3ccc(NC(=O)CCN4CCCC4)cc3nc3cc(NC(=O)CCN4CCCC4)ccc23)cc1"
reading_unit = "%"
experimental_value = 26.4

[[record]]
compound = "CC(C)n1c(=O)n(C)c2cnc3cc(F)c(-c4ccc(OCCCN5CCCCC5)nc4)cc3c21 + CN(C)c1ccc(Nc2c3ccc(NC(=O)CCN4CCCC4)cc3nc3cc(NC(=O)CCN4CCCC4)ccc23)cc1"
reading_unit = "%"
experimental_value = 34.3

[[record]]
compound = "CC1COCCN1c1cc(-c2ccnn2C)c2ccnc(-c3ccn[nH]3)c2n1 (stereo not given) + Cc1cnc(CNC(=O)c2c(=O)c3ccc(N4CCCN(C)CC4)nc3n3c2sc2ccccc23)cn1"
reading_unit = "%"
experimental_value = 5.49


*Q* Which measured viability, T/C value corresponds to COc1cc(C2c3cc4c(cc3C(OC3OC5COC(C)OC5C(O)C3O)C3COC(=O)C23)OCO4)cc(OC)c1O (stereo not given) + CN(C)c1ccc(Nc2c3ccc(NC(=O)CCN4CCCC4)cc3nc3cc(NC(=O)CCN4CCCC4)ccc23)cc1 ?
*A* 49.8

*Q* Which value of viability, T/C has been reported for CC1COCCN1c1cc(C2(S(C)(=N)=O)CC2)nc(-c2ccnc3[nH]ccc23)n1 (stereo not given) + Cc1[nH]c2ccc(F)cc2c1-c1nc2c3cccnc3c3ncccc3c2[nH]1 in the records?
*A* 21.1

*Q* # get_value(readout='viability, T/C', item= C=CC(=O)N1CCN(c2nc(=O)n(-c3c(C)ccnc3C(C)C)c3nc(-c4c(O)cccc4F)c(F)cc23)C(C)C1 (stereo not given) + Cc1cnc(CNC(=O)c2c(=O)c3ccc(N4CCCN(C)CC4)nc3n3c2sc2ccccc23)cn1 )
*A* 81.6

*Q* I would be grateful if you could share the reported viability, T/C for Cc1cccc(N(C)C(=O)C2C(O)CCN2c2nc(C)cc(C(F)(F)F)c2C#N)c1 (stereo not given) + Cc1cnc(CNC(=O)c2c(=O)c3ccc(N4CCCN(C)CC4)nc3n3c2sc2ccccc23)cn1 .
*A* 80.6

*Q* What does the data say about its viability, T/C? Entry: C=CC(=O)N1CCN(c2nc(=O)n(-c3c(C)ccnc3C(C)C)c3nc(-c4c(O)cccc4F)c(F)cc23)C(C)C1 (stereo not given) + CN(C)c1ccc(Nc2c3ccc(NC(=O)CCN4CCCC4)cc3nc3cc(NC(=O)CCN4CCCC4)ccc23)cc1
*A* 96.9

*Q* Any idea what its viability, T/C is? The compound is O=c1[nH]cc(F)c(=O)[nH]1 + Cc1[nH]c2ccc(F)cc2c1-c1nc2c3cccnc3c3ncccc3c2[nH]1
*A* 50.5

Reference source: PubChem BioAssay AID2060498
